This listing pairs molecules with measured DRS from MAX-based deconvolution.
Tested on: REH
Assay: Cell viability (CellTiter Glo), compressed perturbation pools with informed pool design, MAX-based deconvolution, REH;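 also: higher DRS means a larger drug effect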
Conditions: REH, Samples, 7 Pick 3 informed perturbation pools
Experimental: Total cell viability was measured for each sample using an ATP-based luminescence assay (i.e., CellTiter Glo). […] Each cancer drug was cultured with target cells individually. At the end of the screen, samples were either analyzed individually or compressed into pools for analysis. […] After cell viability measurement and DRS calculation, the DRS of each cancer drug in the samples generated based on the pools were deconvoluted and compared to the DRS for each cancer drug measured individually. […]
Just the number, please, no unit after it.

Ask: Need DRS from MAX-based deconvolution of CS(=O)(=O)CCNCc1ccc(-c2ccc3ncnc(Nc4ccc(OCc5cccc(F)c5)c(Cl)c4)c3c2)o1 , thanks.
Result: 8.02

Ask: Report DRS from MAX-based deconvolution for CO[C@H]1C(=O)[C@]2(C)[C@@H](OC)C[C@H]3OC[C@@]3(OC(C)=O)[C@H]2[C@H](OC(=O)c2ccccc2)[C@]2(O)C[C@H](OC(=O)[C@H](O)[C@@H](NC(=O)OC(C)(C)C)c3ccccc3)C(C)=C1C2(C)C please.
Result: 0.00

---

System: MOLT-4
Assay: Cell viability (CellTiter Glo), compressed perturbation pools with informed pool design, MAX-based deconvolution, MOLT-4
Conditions: MOLT-4; compressed perturbation pools, informed pool design; MAX-based deconvolution
We begin with a simple list: items and their reported DRS, MOLT-4, MAX.
# respond with the number and nothing more

CC1(C)CCC(CN2CCN(c3ccc(C(=O)NS(=O)(=O)c4ccc(NCC5CCOCC5)c([N+](=O)[O-])c4)c(Oc4cnc5[nH]ccc5c4)c3)CC2)=C(c2ccc(Cl)cc2)C1 [Venetoclax] :: 3.41

Ask: Please look up its DRS, MOLT-4, MAX: Cc1ccc(Nc2nccc(N(C)c3ccc4c(C)n(C)nc4c3)n2)cc1S(N)(=O)=O [Pazopanib]
Result: 5.39

Ask: What value of DRS, MOLT-4, MAX has been reported for the following compound? Cc1nc(NC(=O)N2CCC[C@H]2C(N)=O)sc1-c1ccnc(C(C)(C)C(F)(F)F)c1 [Alpelisib]
Result: 0.00

Ask: Return reported DRS, MOLT-4, MAX; argument: CCOc1cc2ncc(C#N)c(Nc3ccc(OCc4ccccn4)c(Cl)c3)c2cc1NC(=O)/C=C/CN(C)C [Neratinib]
Result: 4.35

---

System: REH
Assay: Cell viability (CellTiter Glo), compressed perturbation pools with informed pool design, SUM-based deconvolution, REH
Parameters: scale not given here
endpoint: DRS, REH, SUM
In your answer, state the number alone without any accompanying words.

Some molecules with recorded DRS, REH, SUM:
COc1cc(OC)cc(N(CCNC(C)C)c2ccc3ncc(-c4cnn(C)c4)nc3c2)c1 :: 0.00
CCOc1cc2ncc(C#N)c(Nc3ccc(OCc4ccccn4)c(Cl)c3)c2cc1NC(=O)/C=C/CN(C)C :: 0.37
Cc1ccc(NC(=O)c2ccc(CN3CCN(C)CC3)cc2)cc1Nc1nccc(-c2cccnc2)n1 :: 1.81
Cc1ccc(Nc2nccc(N(C)c3ccc4c(C)n(C)nc4c3)n2)cc1S(N)(=O)=O :: 8.02
CO[C@H]1C[C@@H]2CC[C@@H](C)[C@@](O)(O2)C(=O)C(=O)N2CCCC[C@H]2C(=O)O[C@H]([C@H](C)C[C@@H]2CC[C@@H](OC(=O)C(C)(CO)CO)[C@H](OC)C2)CC(=O)[C@H](C)/C=C(\C)[C@@H](O)[C@@H](OC)C(=O)[C@H](C)C[C@H](C)/C=C/C=C/C=C/1C :: 9.71
C=CC(=O)Nc1cc(Nc2nccc(-c3cn(C)c4ccccc34)n2)c(OC)cc1N(C)CCN(C)C :: 0.00
C#Cc1cccc(Nc2ncnc3cc(OCCOC)c(OCCOC)cc23)c1 :: 1.67
CCN1CCN(Cc2ccc(Nc3ncc(F)c(-c4cc(F)c5nc(C)n(C(C)C)c5c4)n3)nc2)CC1 :: 2.69
COc1cc2ncnc(Nc3ccc(F)c(Cl)c3)c2cc1OCCCN1CCOCC1 :: 1.12
CC1(C)CCC(CN2CCN(c3ccc(C(=O)NS(=O)(=O)c4ccc(NCC5CCOCC5)c([N+](=O)[O-])c4)c(Oc4cnc5[nH]ccc5c4)c3)CC2)=C(c2ccc(Cl)cc2)C1 :: 5.50

Ask: Consider the molecule Cc1nc(NC(=O)N2CCC[C@H]2C(N)=O)sc1-c1ccnc(C(C)(C)C(F)(F)F)c1 and give its measured DRS, REH, SUM.
Result: 1.12

Ask: Recorded DRS, REH, SUM for CO[C@H]1C[C@@H]2CC[C@@H](C)[C@@](O)(O2)C(=O)C(=O)N2CCCC[C@H]2C(=O)O[C@H]([C@H](C)C[C@@H]2CC[C@@H](OCCO)[C@H](OC)C2)CC(=O)[C@H](C)/C=C(\C)[C@@H](O)[C@@H](OC)C(=O)[C@H](C)C[C@H](C)/C=C/C=C/C=C/1C , please?
Result: 9.02

Ask: # get_value(readout='DRS, REH, SUM', item= CC(C)C[C@H](NC(=O)[C@H](Cc1ccccc1)NC(=O)c1cnccn1)B(O)O )
Result: 22.86

Ask: Data request, read-out DRS, REH, SUM, for CC[C@H](Nc1ncnc2[nH]cnc12)c1nc2cccc(F)c2c(=O)n1-c1ccccc1
Result: 0.00

Ask: Report DRS, REH, SUM for NC(=O)c1cccc2cn(-c3ccc([C@@H]4CCCNC4)cc3)nc12 please.
Result: 0.00

---

Attribute: DRS from MAX-based deconvolution
System: REH
Assay: Cell viability (CellTiter Glo), compressed perturbation pools with informed pool design, MAX-based deconvolution, REH;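 also: higher DRS means a larger drug effect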
Settings: REH, Samples, 7 Pick 3 informed perturbation pools
Number, no unit, nothing else.

# example entries with known answers
COc1cc(OC)cc(N(CCNC(C)C)c2ccc3ncc(-c4cnn(C)c4)nc3c2)c1 [Erdafitinib] :: 0.73
CCc1nc(C(N)=O)c(Nc2ccc(N3CCC(N4CCN(C)CC4)CC3)c(OC)c2)nc1NC1CCOCC1 [Gilteritinib] :: 0.00
CC(=O)Nc1cccc(-n2c(=O)n(C3CC3)c(=O)c3c(Nc4ccc(I)cc4F)n(C)c(=O)c(C)c32)c1 [Trametinib] :: 23.72
C[C@]12CC[C@@H]3c4ccc(O)cc4C[C@@H](CCCCCCCCC[S+]([O-])CCCC(F)(F)C(F)(F)F)[C@H]3[C@@H]1CC[C@@H]2O (some centres unmarked) [Fulvestrant] :: 0.00
CS(=O)(=O)c1ccc(C(=O)Nc2ccc(Cl)c(-c3ccccn3)c2)c(Cl)c1 [Vismodegib] :: 3.06
Cn1cnc2c(F)c(Nc3ccc(Br)cc3Cl)c(C(=O)NOCCO)cc21 [Selumetinib] :: 4.43
CN1CC[C@@H](NC(=O)Nc2ccc(C#N)cc2)C[C@@H]1c1nc2ccccc2[nH]1 [Glasdegib] :: 0.00
FC(F)(F)c1ccc(CNc2ccc(Cc3c[nH]c4ncc(Cl)cc34)cn2)cn1 [Pexidartinib] :: 0.00

Ask: I have this compound here, N#CC[C@H](C1CCCC1)n1cc(-c2ncnc3[nH]ccc23)cn1 [Ruxolitinib] , and I need its recorded DRS from MAX-based deconvolution.
Result: 0.00

Ask: Any idea what its DRS from MAX-based deconvolution is? The compound is C[C@]12CC[C@H](O)CC1=CC[C@@H]1[C@@H]2CC[C@]2(C)C(c3cccnc3)=CC[C@@H]12 [Abiraterone]
Result: 0.00

Ask: Which DRS from MAX-based deconvolution reading was recorded for the compound C[C@H](Nc1ncnc2nc[nH]c12)c1cc2cccc(Cl)c2c(=O)n1-c1ccccc1 [Duvelisib] ?
Result: 3.75

---

System: REH
Test: Cell viability (CellTiter Glo), compressed perturbation pools with informed pool design, MAX-based deconvolution, REH;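 also: higher DRS means a larger drug effect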
Details: REH, Samples, 7 Pick 3 informed perturbation pools
Quick reference: DRS from MAX-based deconvolution of the listed items.
No unit in the answer, please; the number alone is enough.

Observe how each entry below is paired with its result.
C=CC(=O)N1CCC[C@@H](n2nc(-c3ccc(Oc4ccccc4)cc3)c3c(N)ncnc32)C1 [Ibrutinib] :: 1.56
CCN1CCN(Cc2ccc(Nc3ncc(F)c(-c4cc(F)c5nc(C)n(C(C)C)c5c4)n3)nc2)CC1 [Abemaciclib] :: 15.14
CC(C)(C#N)c1cc(Cn2cncn2)cc(C(C)(C)C#N)c1 [Anastrozole] :: 0.00
O=C(Nc1cnn2ccc(N3CCC[C@@H]3c3cc(F)ccc3F)nc12)N1CC[C@H](O)C1 [Larotrectinib] :: 0.00

Ask: Quick check: DRS from MAX-based deconvolution on REH, item CC#CC(=O)N1CCC[C@H]1c1nc(-c2ccc(C(=O)Nc3ccccn3)cc2)c2c(N)nccn12 [Acalabrutinib] ?
Result: 0.00

Ask: Notebook entry, REH assay: DRS from MAX-based deconvolution of O=C(/C=C/c1cccc(S(=O)(=O)Nc2ccccc2)c1)NO [Belinostat] = ?
Result: 14.23

Ask: Any idea what DRS from MAX-based deconvolution came out for CC[C@H](Nc1ncnc2[nH]cnc12)c1nc2cccc(F)c2c(=O)n1-c1ccccc1 [Idelalisib] on REH?
Result: 0.74

Ask: Return DRS from MAX-based deconvolution measured with REH given this compound: Cc1cnc(Nc2ccc(OCCN3CCCC3)cc2)nc1Nc1cccc(S(=O)(=O)NC(C)(C)C)c1 [Fedratinib]
Result: 9.03

Ask: Missing value: DRS from MAX-based deconvolution, REH, entry C[C@@H]1CCN(C(=O)CC#N)C[C@@H]1N(C)c1ncnc2[nH]ccc12 [Tofacitinib] . Fill in?
Result: 4.06

Ask: // lookup DRS from MAX-based deconvolution | system=REH | key= CC(C)C[C@H](NC(=O)[C@H](Cc1ccccc1)NC(=O)c1cnccn1)B(O)O [Bortezomib]
Result: 2.90

Ask: Quick check: DRS from MAX-based deconvolution on REH, item C=C1C[C@@H]2[C@H](CC[C@]3(C)C(=O)CC[C@@H]23)[C@@]2(C)C=CC(=O)C=C12 [Exemestane] ?
Result: 0.00

Ask: For REH, provide DRS from MAX-based deconvolution of COc1cc2c(Nc3ccc(Br)cc3F)ncnc2cc1OCC1CCN(C)CC1 [Vandetanib] please.
Result: 9.02

Ask: Query DRS from MAX-based deconvolution on REH for Cc1nc(NC(=O)N2CCC[C@H]2C(N)=O)sc1-c1ccnc(C(C)(C)C(F)(F)F)c1 [Alpelisib]
Result: 0.35

Ask: For the record C=CC(=O)Nc1cc(Nc2nccc(-c3cn(C)c4ccccc34)n2)c(OC)cc1N(C)CCN(C)C [Osimertinib] , what value of DRS from MAX-based deconvolution is listed for REH?
Result: 0.00

// data source = patent US20260378560A1
